Where these numbers come from: patent US8796284B2

target: UniProt:P29274; assay: Cyclic adenosine monophosphate (cAMP) production measurement in CHO-A2A cells; conditions: 1 μM NECA, 30 μM rolipram, cAMP enzymeimmunoassay
pKi: −log10 of the molar value.
MEASUREMENT_LABEL: pKi

Incoming: Report pKi for CN(C)c1nc(-n2cccn2)nc(N)c1Br please.
Outgoing: 7.30

A. Nc1nc(-c2nccs2)nc(-c2nccs2)c1Br
B. Nc1nc(-n2cccn2)nc(NC2CC2)c1Br
Incoming: Lab note: record which item had the higher pKi, A or B . # reply format: chosen label
Outgoing: A

====

// values below are pKi; system is hA2a receptors (Homo sapiens (Human), UniProt P29274)
Sequence (P29274 whole entry): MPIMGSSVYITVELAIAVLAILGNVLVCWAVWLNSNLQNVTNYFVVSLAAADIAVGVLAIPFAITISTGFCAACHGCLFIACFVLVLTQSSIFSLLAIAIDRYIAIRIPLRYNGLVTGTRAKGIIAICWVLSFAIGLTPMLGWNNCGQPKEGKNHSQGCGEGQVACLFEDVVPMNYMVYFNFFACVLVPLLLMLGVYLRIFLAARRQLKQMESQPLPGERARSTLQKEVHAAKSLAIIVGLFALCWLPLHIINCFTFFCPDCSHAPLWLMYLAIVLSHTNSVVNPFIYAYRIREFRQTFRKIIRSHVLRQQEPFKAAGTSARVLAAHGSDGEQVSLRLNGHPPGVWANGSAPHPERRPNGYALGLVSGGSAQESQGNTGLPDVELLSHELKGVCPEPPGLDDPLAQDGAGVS
pKi: −log10 of the molar value.
MEASUREMENT_LABEL: pKi

Incoming: Report pKi for Nc1nc(-n2cccn2)nc(NC2CC2)c1Br [Example 8] please.
Outgoing: 7.74

Incoming: Report pKi for CNc1nc(-n2cccn2)nc(N)c1Br [Example 24] please.
Outgoing: 7.80

Incoming: Report pKi for Nc1nc(-n2cccn2)nc(OCC(F)(F)F)c1Br [Example 44] please.
Outgoing: 7.85

P. Nc1nc(-n2cccn2)nc(-n2cccn2)c1Cl [Example 46]
Q. CCSc1nc(-n2cccn2)nc(N)c1Br [Example 36]
Incoming: Select the item whose pKi value is smaller, choosing between P and Q . # reply format: chosen label
Outgoing: P
(P: 7.77, Q: 8.10)
